Field: Population Normal (%). Provide a value for each of the compounds that follow.
test system: HEK-293T; assay: Multiplex assay against HEK293T; format: toxicity, cell-based; settings: human, 48 h, 1 µM, compound concentration 1 uM, replicate 2

# value lookup — system HEK-293T, readout Population Normal (%), item "Nc1ccc(C(=O)Nc2cccc(-c3nc(N4CCOCC4)c4oc5ncccc5c4n3)c2)cn1"
91%

Checklist item: Population Normal (%) tested on HEK-293T, entry "CNc1oc(-c2cccc3ccccc23)nc1C#N" , value?
85%

Hi! What's the reported Population Normal (%) for "O=C(O)c1ccc2cc(-c3ccc(O)c(C45CC6CC(CC(C6)C4)C5)c3)ccc2c1" on HEK-293T?
97%

Hello, I am looking for reported Population Normal (%) with HEK-293T for "Cc1cc2c(cc1N1C(=O)c3cccc4c(CCCO)ccc(c34)C1=O)n(C)c(=O)n2C" . Could you help?
97%

Query the reported Population Normal (%) for HEK-293T; item: "COc1ccc(NS(=O)(=O)c2sc3ccc(Cl)cc3c2C)cc1N1CCNCC1.Cl"
95%

Recorded Population Normal (%) for "CCCn1c(=O)c2[nH]c(C34CC5CC(CC3C5)C4)nc2n(CCC)c1=O" with HEK-293T, please?
95%

Give HEK-293T Population Normal (%) for "CCc1cc2c(cc1CC)CC(NC[C@H](O)c1ccc(O)c3[nH]c(=O)ccc13)C2"
92%

Form entry - test system: HEK-293T; read-out: Population Normal (%); compound: "CC(C)N1CCC(C)(C)c2cc(C#Cc3ccc(C(=O)O)cc3)ccc21"
97%

Requested read-out Population Normal (%), target or system HEK-293T, entry "COc1cc2c(NC3CCN(C(C)C)CC3)nc(N3CCC(F)(F)CC3)nc2cc1OCCCN1CCCC1"
87%

Give HEK-293T Population Normal (%) for CCC(=O)O[C@]1(C(=O)SCF)[C@H](C)C[C@H]2[C@@H]3C[C@H](F)C4=CC(=O)C=C[C@]4(C)[C@@]3(F)[C@@H](O)C[C@@]21C [FLUTICASONE PROPIONATE]
97%

// fetch HEK-293T Population Normal (%) for "CC(=O)c1cc(-c2cc(C(=O)NC3CC3)ccc2C)c2ncccn12"
95%

Value wanted: Population Normal (%) (HEK-293T) of entry "Cl.Cl.Nc1ncnc2c1c(-c1cccc(OCc3ccccc3)c1)cn2[C@H]1C[C@@H](CN2CCC2)C1"
88%

Entry CCn1c(-c2nonc2N)nc2cnc(Oc3cccc(NC(=O)c4ccc(OCCN5CCOCC5)cc4)c3)cc21 [GSK-269962A] , system HEK-293T: what Population Normal (%) was measured?
96%

Population Normal (%) of "Nc1nc2c(c(N3CCNCC3)n1)CCC1=C2[C@@H]2CCCC[C@@H]2O1" on HEK-293T?
95%

Hello, I am looking for reported Population Normal (%) with HEK-293T for Cc1nc(Cc2cccc(C(F)(F)F)c2)sc1-c1ccc(C(N)=O)nc1 [TP-024n] . Could you help?
97%

---

Exercise: for every item that follows, state its recorded Growth Rate.
system: Fibroblast; experiment: Incucyte cell viability with human fibroblast; type: toxicity, cell-based; conditions: 18 h, 10 µM, compound concentration 10 uM, replicate number 1, timepoint 18 hours; also: filed as whole numbers so only -1 and 0 and 1 occur
Lab note: jot down the number only; don't add units.

Report Growth Rate for "CC(C)N1CCC(C)(C)c2cc(C#Cc3ccc(C(=O)O)cc3)ccc21" tested on Fibroblast.
0

API: value(readout= Growth Rate, system= Fibroblast, query= CS(=O)(=O)c1cc(C2(NC(=O)c3cncc4c3cnn4-c3ccc(F)cc3)CC2)ccn1 [BI 639667] )
0

Report Growth Rate for CN(C)C(=O)Cn1cc(-c2nc(C3(c4ccc(-c5cnc(N)nc5)cc4)CC3)no2)cn1 [BI 0153] tested on Fibroblast.
0

Kindly state the measured Growth Rate obtained for O=C(NOC[C@H](O)CO)c1ccc(F)c(F)c1Nc1ccc(I)cc1F [MIRDAMETINIB] with Fibroblast.
1

Growth Rate of "FC(F)(F)c1c(N2CCC(c3ccccc3)CC2)ccn2c(CC3CC3)nnc12" on Fibroblast?
1

For the record CN1C(=O)[C@@H](N2CCc3c(nn(Cc4ccccc4)c3Br)C2=O)COc2ccccc21 [TP-030-2] , what value of Growth Rate is listed for Fibroblast?
0

Which Growth Rate is reported with Fibroblast for this entry: CN(C)C/C=C/C(=O)Nc1cc2c(Nc3ccc(F)c(Cl)c3)ncnc2cc1O[C@H]1CCOC1.O=C(O)/C=C\C(=O)O.O=C(O)/C=C\C(=O)O [AFATINIB DIMALEATE] ?
0

Record CN(C)CC[C@@H](c1ccc(Cl)cc1)c1ccccn1.O=C(O)/C=C\C(=O)O [DEXCHLORPHENIRAMINE MALEATE] : what is its Growth Rate with Fibroblast?
1

Request body: readout Growth Rate, system Fibroblast, query "Cn1cc(-c2ccc3occ(-c4ccccc4-c4ccccc4)c3n2)cn1" . Return the value.
0

What reported Growth Rate corresponds to CCC(=O)N[C@H]1CC[C@@H](C(=O)N(C)c2ccc(-c3nc4ccccc4o3)cc2)C1 [BI 99179] on Fibroblast?
0

Look up Growth Rate with Fibroblast for this compound: CN1CC(=O)N=C1NC(=O)Nc1cccc(Cl)c1 [FENOBAM ANHYDROUS]
1

Request: Growth Rate, test system Fibroblast, entry COc1cccc(CNC(=O)c2nc3scc(CN(C)Cc4ccccc4)c3c(=O)[nH]2)c1 [T-26f]
0

Return Growth Rate measured with Fibroblast given this compound: CCc1cc2c(cc1CC)CC(NC[C@H](O)c1ccc(O)c3[nH]c(=O)ccc13)C2 [INDACATEROL]
0

Quick check: Growth Rate on Fibroblast, item Nc1nc(NCCc2ccc(O)cc2)nc2nc(-c3ccco3)nn12 [ZM-241385] ?
1

Any idea what Growth Rate came out for Cc1nc(Cc2cccc(C(F)(F)F)c2)sc1-c1ccc(C(N)=O)nc1 [TP-024n] on Fibroblast?
0

Give Fibroblast Growth Rate for CC(C)Oc1ccc(C(=O)N[C@H](CNC(=O)CN(C)C)Cc2ccc(-c3cn4cccc([C@H](C)O)c4n3)cc2)cc1Cl [GSK-923295A]
0

Lab note: need Growth Rate with Fibroblast for entry CCCCc1nc(Cl)c(CO)n1Cc1ccc(-c2ccccc2-c2nn[nH]n2)cc1 [LOSARTAN] , please look it up.
1

---

Provide the reported Population Healthy Nuclei (%) of each item.
system: HEK-293T; assay: Multiplex assay against HEK293T; format: toxicity, cell-based; conditions: human, 12 h, 10 µM, compound concentration 10 uM, replicate 1
Return type: number; implicit unit %.

Recorded Population Healthy Nuclei (%) for "N#Cc1cnc(Nc2cc(NC[C@H]3CNCCO3)c(C(F)(F)F)cn2)cn1" , please?
69

Any idea what Population Healthy Nuclei (%) was measured for "O=C(O)c1ccc2cc(-c3ccc(O)c(C45CC6CC(CC(C6)C4)C5)c3)ccc2c1" ?
33

Returns the measured Population Healthy Nuclei (%) for the input molecule. Input: "CCOc1cc2ncc(C#N)c(Nc3ccc(OCc4cccc(F)c4)c(Cl)c3)c2cc1NC(=O)/C=C/CN(C)C"
50

# lookup: Population Healthy Nuclei (%) of CCC(=O)O[C@]1(C(=O)SCF)[C@H](C)C[C@H]2[C@@H]3C[C@H](F)C4=CC(=O)C=C[C@]4(C)[C@@]3(F)[C@@H](O)C[C@@]21C [FLUTICASONE PROPIONATE]
32

What Population Healthy Nuclei (%) value was documented for this molecule, "CC(=O)c1cc(-c2cc(C(=O)NC3CC3)ccc2C)c2ncccn12" ?
29

Query (molecule): "Nc1nc2c(c(N3CCNCC3)n1)CCC1=C2[C@@H]2CCCC[C@@H]2O1" ; field requested: Population Healthy Nuclei (%)
33

Suppose we examine the molecule CN(C)C/C=C/C(=O)Nc1cc2c(Nc3ccc(F)c(Cl)c3)ncnc2cc1O[C@H]1CCOC1.O=C(O)/C=C\C(=O)O.O=C(O)/C=C\C(=O)O [AFATINIB DIMALEATE] ; what Population Healthy Nuclei (%) value has been reported?
32

---

Give Population Hoechst High Intensity Objects (%) for every item shown.
system: U2OS; test: Multiplex assay against U2OS; assay type: toxicity, cell-based; conditions: human, 24 h, 10 µM, compound concentration 10 uM, replicate 2
Write your answer as a measured quantity: the number, then the unit.

Look up Population Hoechst High Intensity Objects (%) for this compound: Cc1nc(Cc2cccc(C(F)(F)F)c2)sc1-c1ccc(C(N)=O)nc1 [TP-024n]
2%

Return reported Population Hoechst High Intensity Objects (%); argument: "COc1cc2c(Nc3ccc(NC(=O)c4ccccc4)cc3)ncnc2cc1OCCCN1CCOCC1"
10%

Could you tell me which Population Hoechst High Intensity Objects (%) is on file for CN(C)C/C=C/C(=O)Nc1cc2c(Nc3ccc(F)c(Cl)c3)ncnc2cc1O[C@H]1CCOC1.O=C(O)/C=C\C(=O)O.O=C(O)/C=C\C(=O)O [AFATINIB DIMALEATE] ?
8%

Which Population Hoechst High Intensity Objects (%) is listed for "COc1cc2c(NC3CCN(C(C)C)CC3)nc(N3CCC(F)(F)CC3)nc2cc1OCCCN1CCCC1" ?
7%

This collection of values is drawn from ChEMBL document CHEMBL4689842.
